Type: cell-based, human
conditionSet: human, Cell viability (%)
Bridge positions count the residues as written; N and C are the ends. Square brackets hold non-standard residues; d marks the D form. Peptide text beside a SMILES is read from it. * marks the point of attachment. Butanoyl(4-guanidino) = N=C(N)NCCCC(=O)*; Propanoyl(3-guanidino) = N=C(N)NCCC(=O)*
Below, each entry is listed with its recorded viability at 2 h, 25 µM.
Give the number; % is assumed, so skip it.

Req: State the recorded viability at 2 h, 25 µM for this entry: CC[C@H](C)[C@H](NC(=O)[C@H](CCCNC(=N)N)NC(=O)[C@H]1CCC(=O)NCCCC[C@H](NC(=O)[C@H](Cc2ccccc2)NC(=O)[C@H](Cc2c[nH]c3ccccc23)NC(=O)[C@@H]2CCCN2C(=O)[C@@H](NC(=O)[C@H](Cc2ccccc2)NC(=O)CCCNC(=N)N)C(C)C)C(=O)N[C@@H](CCCCN)C(=O)N[C@@H](Cc2ccccc2)C(=O)N[C@H](CC(C)C)C(=O)N1)C(=O)N[C@@H](CC(C)C)C(N)=O [Peptide 5, guanidino-GABA-FVPWF[KKFle]RIL] ({Butanoyl(4-guanidino)}-FVPWFKKF[dL][dE]RIL-NH2; lactam 6-10)
Resp: 76

Req: Requested read-out: viability at 2 h, 25 µM. Entry: CC[C@H](C)[C@H](NC(=O)[C@H](CCCNC(=N)N)NC(=O)[C@H]1CCC(=O)NCCCC[C@H](NC(=O)[C@H](Cc2ccccc2)NC(=O)[C@H](Cc2c[nH]c3ccccc23)NC(=O)[C@@H]2CCCN2C(=O)[C@@H](NC(=O)[C@H](Cc2ccccc2)NC(=O)CCNC(=N)N)C(C)C)C(=O)N[C@@H](CCCCN)C(=O)N[C@@H](Cc2ccccc2)C(=O)N[C@H](CC(C)C)C(=O)N1)C(=O)N[C@@H](CC(C)C)C(N)=O [Peptide 4, guanidino-βAla-FVPWF[KKFle]RIL] ({Propanoyl(3-guanidino)}-FVPWFKKF[dL][dE]RIL-NH2; lactam 6-10)
Resp: 47

Now for the molecule whose viability at 2 h, 25 µM we want.
Req: Which viability at 2 h, 25 µM reading was recorded for the molecule CC[C@H](C)[C@H](NC(=O)[C@H](CCCNC(=N)N)NC(=O)[C@H]1CCC(=O)NCCCC[C@H](NC(=O)[C@H](Cc2ccccc2)NC(=O)[C@H](Cc2c[nH]c3ccccc23)NC(=O)[C@@H]2CCCN2C(=O)[C@@H](NC(=O)[C@@H](N)Cc2ccccc2)C(C)C)C(=O)N[C@@H](CCCNC(=N)N)C(=O)N[C@@H](Cc2ccccc2)C(=O)N[C@H](CC(C)C)C(=O)N1)C(=O)N[C@@H](CC(C)C)C(N)=O [Peptide 9, FVPWF[KRFle]RIL] (H-FVPWFKRF[dL][dE]RIL-NH2; lactam 6-10) ?
Resp: 94

Ref: paper PMC12703733
